# Assay summary: Solubility study of AVA-solid dispersions in distilled water
# Assay type: physicochemical
# Run parameters: thermodynamic from solid, shaking water bath 48 h
Quantity kind: solubility at 48 h (µg/mL)
Write it as a number; the unit µg/mL goes unstated.

QUERY: Give the measured solubility at 48 h of COc1ccc(CN=c2[nH]c(N3CCC[C@H]3CO)ncc2C(=O)NCc2ncccn2)cc1Cl .
RESULT: 3
